From: paper PMC4081100

Field: binding signal. Provide a value for each of the sequences that follow.
Target: GST-ANAC055(1-171) (Arabidopsis thaliana, UniProt Q9LDY8 1-171)
Sequence: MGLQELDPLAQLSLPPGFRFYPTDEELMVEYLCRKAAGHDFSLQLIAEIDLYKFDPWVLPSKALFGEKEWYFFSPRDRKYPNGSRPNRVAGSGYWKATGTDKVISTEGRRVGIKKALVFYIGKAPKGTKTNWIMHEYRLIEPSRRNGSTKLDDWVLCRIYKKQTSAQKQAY
Assay: universal protein binding microarray (PBM); high values mean tight binding
Conditions: protein: recombinant; tags: GST; chain copies: 2; dsDNA, one strand shown
Only the number, expressed in E-score, is required.

For `ACGCTACA` , write its binding signal.
0.0711

For `TAACGTGA` , write its binding signal.
0.213

For `ACAAGTTA` , write its binding signal.
0.106

For `ACTAAGTA` , write its binding signal.
0.216

For `ACGAGAAA` , write its binding signal.
0.419

For `TACGTTAA` , write its binding signal.
0.154

For `AGCACGCA` , write its binding signal.
0.281

For `ACACGTCA` , write its binding signal.
0.402

For `TGAAGGAA` , write its binding signal.
0.0856

For `ACGTTACT` , write its binding signal.
0.155

For `GTTTCTTA` , write its binding signal.
0.185

For `TTCGTCAA` , write its binding signal.
0.0829

For `ACGTTACG` , write its binding signal.
0.299

For `CTAGCGTA` , write its binding signal.
0.0674

For `AATTGACC` , write its binding signal.
0.0684

For `GACGTAAA` , write its binding signal.
0.256

For `TAAGTTAA` , write its binding signal.
0.0747

For `GTATTGAC` , write its binding signal.
0.0594

For `AGTTTGAC` , write its binding signal.
0.118

For `GTCAAGAA` , write its binding signal.
0.0615

For `GTAGCGTA` , write its binding signal.
0.205

For `GACGTGTA` , write its binding signal.
0.341

For `GTGACGTA` , write its binding signal.
0.36

For `ACTTGACT` , write its binding signal.
0.0752

For `GCGTGCAC` , write its binding signal.
0.158

For `ACGTAACT` , write its binding signal.
0.451

For `AAACACGC` , write its binding signal.
0.262

For `CTACGCAA` , write its binding signal.
0.207

For `ATACGCTA` , write its binding signal.
0.223

For `CTAGGAAA` , write its binding signal.
0.214

For `ATAAGTAA` , write its binding signal.
0.181

---

Field: binding signal. Provide a value for each of the sequences that follow.
Target: GST-VND3 NAC domain (Arabidopsis thaliana, UniProt Q9FH59 12-162)
Sequence: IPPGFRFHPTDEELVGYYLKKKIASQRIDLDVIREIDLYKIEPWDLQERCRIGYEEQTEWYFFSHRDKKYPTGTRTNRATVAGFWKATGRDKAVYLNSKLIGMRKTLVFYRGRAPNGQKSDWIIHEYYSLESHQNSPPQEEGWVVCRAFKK
Assay: universal protein binding microarray (PBM); high values mean tight binding
Conditions: protein: recombinant; tags: GST; chain copies: 2; dsDNA, one strand shown
Only the number, expressed in E-score, is required.

For `AGATTGAC` , write its binding signal.
0.0944

For `AACGTAAC` , write its binding signal.
0.278

For `ACGTAACA` , write its binding signal.
0.41

For `CTTGACTA` , write its binding signal.
0.159

For `AAGCGTAA` , write its binding signal.
0.13

For `ACGCAAAG` , write its binding signal.
0.374

For `AATTGACC` , write its binding signal.
0.115

For `GACTTTTA` , write its binding signal.
0.0985

For `GGTCAAAA` , write its binding signal.
0.0741

For `AGAAGCAA` , write its binding signal.
0.109

---

Molecular target: GST-SND1(1-203) (Arabidopsis thaliana, UniProt Q9LPI7 1-203)
Sequence: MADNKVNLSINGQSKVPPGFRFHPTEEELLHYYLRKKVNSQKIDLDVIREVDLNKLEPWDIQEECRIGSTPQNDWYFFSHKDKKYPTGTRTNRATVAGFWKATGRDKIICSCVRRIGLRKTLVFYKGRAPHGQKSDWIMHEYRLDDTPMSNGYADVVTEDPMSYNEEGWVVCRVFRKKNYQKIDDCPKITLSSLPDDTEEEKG
Test: universal protein binding microarray (PBM); high values mean tight binding
Conditions: protein: recombinant; tags: GST; chain copies: 2; dsDNA, one strand shown
# if value of binding signal reaches 0.4 E-score, tag Condition met; if it stays below, tag Condition not met

Reported binding signal reaches at least 0.4 E-score for `CACGCGAC` ?
Condition not met

Reported binding signal reaches at least 0.4 E-score for `TAAAGCAA` ?
Condition met

Reported binding signal reaches at least 0.4 E-score for `TTAAGAAA` ?
Condition not met

Reported binding signal reaches at least 0.4 E-score for `TCCGTCAA` ?
Condition not met

Reported binding signal reaches at least 0.4 E-score for `ATTGCGTG` ?
Condition met

Reported binding signal reaches at least 0.4 E-score for `AAGGTAAC` ?
Condition not met

Reported binding signal reaches at least 0.4 E-score for `ATACGCTA` ?
Condition met

---

Field: binding signal. Provide a value for each of the sequences that follow.
Target: GST-VND7 NAC domain (Arabidopsis thaliana, UniProt Q9C8W9 9-158)
Sequence: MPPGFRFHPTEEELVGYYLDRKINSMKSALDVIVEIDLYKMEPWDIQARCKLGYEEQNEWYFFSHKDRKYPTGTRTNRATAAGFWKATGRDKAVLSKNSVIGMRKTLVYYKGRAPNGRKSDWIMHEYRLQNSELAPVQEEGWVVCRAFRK
Assay: universal protein binding microarray (PBM); high values mean tight binding
Conditions: protein: recombinant; tags: GST; chain copies: 2; dsDNA, one strand shown
Only the number, expressed in E-score, is required.

Please indicate recorded binding signal of `CACGGCAG` measured with GST-VND7 NAC domain (Arabidopsis thaliana, UniProt Q9C8W9 9-158).
0.384

Please indicate recorded binding signal of `TGCGTGAA` measured with GST-VND7 NAC domain (Arabidopsis thaliana, UniProt Q9C8W9 9-158).
0.263

Please indicate recorded binding signal of `AACGTAAA` measured with GST-VND7 NAC domain (Arabidopsis thaliana, UniProt Q9C8W9 9-158).
0.248

Please indicate recorded binding signal of `GCGTGCAC` measured with GST-VND7 NAC domain (Arabidopsis thaliana, UniProt Q9C8W9 9-158).
0.216

Please indicate recorded binding signal of `ACACGCCA` measured with GST-VND7 NAC domain (Arabidopsis thaliana, UniProt Q9C8W9 9-158).
0.257

Please indicate recorded binding signal of `GTCAATAA` measured with GST-VND7 NAC domain (Arabidopsis thaliana, UniProt Q9C8W9 9-158).
0.112

Please indicate recorded binding signal of `GCGTGTAA` measured with GST-VND7 NAC domain (Arabidopsis thaliana, UniProt Q9C8W9 9-158).
0.2

Please indicate recorded binding signal of `ACTTTCCT` measured with GST-VND7 NAC domain (Arabidopsis thaliana, UniProt Q9C8W9 9-158).
0.121

Please indicate recorded binding signal of `AAGCGTAA` measured with GST-VND7 NAC domain (Arabidopsis thaliana, UniProt Q9C8W9 9-158).
0.115

Please indicate recorded binding signal of `ACACGGTA` measured with GST-VND7 NAC domain (Arabidopsis thaliana, UniProt Q9C8W9 9-158).
0.123

---

Molecular target: GST-NST2(1-184) (Arabidopsis thaliana, UniProt Q9M274 1-184)
Sequence: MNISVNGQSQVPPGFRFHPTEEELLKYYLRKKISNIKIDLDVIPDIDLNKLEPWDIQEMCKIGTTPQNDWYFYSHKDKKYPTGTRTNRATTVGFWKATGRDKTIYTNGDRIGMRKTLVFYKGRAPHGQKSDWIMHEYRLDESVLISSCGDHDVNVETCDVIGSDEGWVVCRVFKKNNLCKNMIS
Assay: universal protein binding microarray (PBM); transcription factors of Arabidopsis thaliana; high values mean tight binding
Conditions: protein: recombinant; tags: GST; chain copies: 2; dsDNA, one strand shown
Mark each entry Criterion met if its binding signal sits below 0.3 E-score, and Criterion not met for all others.

is_below(binding signal, 0.3 E-score) for `GCGTGTAC` ?
Criterion met

is_below(binding signal, 0.3 E-score) for `AGTCAAAC` ?
Criterion met

is_below(binding signal, 0.3 E-score) for `TTACGTAA` ?
Criterion not met

is_below(binding signal, 0.3 E-score) for `TTAAGAAA` ?
Criterion met

is_below(binding signal, 0.3 E-score) for `AAGTCAAG` ?
Criterion met

is_below(binding signal, 0.3 E-score) for `TGAAGTAA` ?
Criterion not met

is_below(binding signal, 0.3 E-score) for `GTAAGAAA` ?
Criterion met

is_below(binding signal, 0.3 E-score) for `CACGCGAA` ?
Criterion met
